Reported values of IC80 (80% AChE inhibition), best fit for individual entries
Biological target: AChE from electric eel (Electrophorus electricus) (Electrophorus electricus)
Construct: purchased Sigma-Aldrich GmbH (Steinheim, Germany)
Sequence (O42275 24-633): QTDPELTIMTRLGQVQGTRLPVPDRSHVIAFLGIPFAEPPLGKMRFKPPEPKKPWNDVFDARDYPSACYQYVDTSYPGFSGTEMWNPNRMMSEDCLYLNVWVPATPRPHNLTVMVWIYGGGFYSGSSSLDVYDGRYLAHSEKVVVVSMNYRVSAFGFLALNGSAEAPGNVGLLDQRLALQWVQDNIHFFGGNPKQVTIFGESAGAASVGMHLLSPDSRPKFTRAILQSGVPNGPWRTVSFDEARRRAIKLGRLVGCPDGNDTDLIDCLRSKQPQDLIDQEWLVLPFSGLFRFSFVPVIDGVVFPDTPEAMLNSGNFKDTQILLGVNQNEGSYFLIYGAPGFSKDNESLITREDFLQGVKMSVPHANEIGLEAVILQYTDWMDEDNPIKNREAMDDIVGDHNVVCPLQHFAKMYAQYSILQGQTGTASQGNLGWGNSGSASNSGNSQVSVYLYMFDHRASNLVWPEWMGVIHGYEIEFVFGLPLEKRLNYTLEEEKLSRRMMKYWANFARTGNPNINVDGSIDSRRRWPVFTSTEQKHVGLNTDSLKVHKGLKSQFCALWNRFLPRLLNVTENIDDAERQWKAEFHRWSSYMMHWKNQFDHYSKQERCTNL
Experiment: HPTLC-(Ox)-AChE-I assay, immersion method (plates immersed in AChE solution)
Format: biochemical
Conditions: without oxidation, OTPs 100 µL, oxons 10 µL applied, peak heights, n = 3
READOUT TYPE: IC80 (80% AChE inhibition), best fit

[[record]]
molecule = "CCOP(=O)(OCC)Oc1ccc([N+](=O)[O-])cc1"
readout_type = "IC80 (80% AChE inhibition), best fit"
result = "5.4 ng/spot"

[[record]]
molecule = "CCOC(=O)CC(SP(=O)(OC)OC)C(=O)OCC (stereo not shown)"
readout_type = "IC80 (80% AChE inhibition), best fit"
result = "1.5 ng/spot"

[[record]]
molecule = "CCOC(=O)CC(SP(=S)(OC)OC)C(=O)OCC (stereo not shown)"
readout_type = "IC80 (80% AChE inhibition), best fit"
result = "3363 ng/spot"

[[record]]
molecule = "CCOP(=O)(OCC)Oc1nc(Cl)c(Cl)cc1Cl"
readout_type = "IC80 (80% AChE inhibition), best fit"
result = "4.0 ng/spot"


Hey, just so you know, these numbers are from paper PMC9124651.
